- EXPERIMENTAL_TARGET: Factor XIIa (Homo sapiens (Human))
- Sequence (P00748 373-615): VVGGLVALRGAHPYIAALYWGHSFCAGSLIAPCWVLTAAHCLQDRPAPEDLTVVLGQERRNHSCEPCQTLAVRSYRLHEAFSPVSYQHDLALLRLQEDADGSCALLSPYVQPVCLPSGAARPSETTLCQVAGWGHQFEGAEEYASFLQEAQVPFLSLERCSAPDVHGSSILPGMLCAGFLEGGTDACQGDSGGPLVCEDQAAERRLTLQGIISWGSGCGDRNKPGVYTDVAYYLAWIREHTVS
- ASSAY_NAME: Determination of enzyme selectivity, Factor XIIa
- Format: biochemical
- COND: substrate at Km concentration
Readings of IC50 for the listed molecules
ENDPOINT: IC50

>>> print(df.to_string())
                                    molecule                 experimental_target  endpoint      result
 0  Cc1cnn(Cc2ccc(Cn3cc(C(=O)NCc4cccc5[nH]ncc45)c(C(F)(F)F)n3)cc2)c1 [Example 124]  Factor XIIa (Homo sapiens (Human))      IC50  > 10000 nM
 1  Cc1cnn(Cc2ccc(Cn3cc(C(=O)NCc4ccc5c(N)nccc5c4)c(C(F)F)n3)cc2)c1 [Example 39]  Factor XIIa (Homo sapiens (Human))      IC50  > 10000 nM
 2  Cc1cnn(Cc2ccc(Cn3cc(C(=O)NCc4ccc5c(N)nccc5c4)c(C(F)(F)F)n3)cc2)c1 [Example 36]  Factor XIIa (Homo sapiens (Human))      IC50  > 10000 nM
 3  Nc1nccc2cc(CNC(=O)c3cn(Cc4ccnc(N5CCCC5)c4)nc3C(F)(F)F)ccc12 [Example 54]  Factor XIIa (Homo sapiens (Human))      IC50   > 4000 nM
 4  O=C(NCc1cnc2[nH]ccc2c1)c1cnn(Cc2cccc(Oc3ncccc3F)c2)c1 [Example 106]  Factor XIIa (Homo sapiens (Human))      IC50  > 40000 nM
 5  Cc1cnn(Cc2ccc(Cn3nc(C)c(C(=O)NCc4ccc5c(N)nccc5c4)c3C)cc2)c1 [Example 34]  Factor XIIa (Homo sapiens (Human))      IC50  > 40000 nM
 6  Cc1nc(C)c(N(C)Cc2ccc(Cn3cc(C(=O)NCc4cnc5[nH]ccc5c4)cn3)cc2)s1 [Example 105]  Factor XIIa (Homo sapiens (Human))      IC50  > 40000 nM
 7  C[C@@H]1CCCN1c1ccc(Cn2cc(C(=O)NCc3ccc4c(N)nccc4c3)c(C(F)(F)F)n2)cn1 [Example 63]  Factor XIIa (Homo sapiens (Human))      IC50  > 10000 nM
 8  Cc1cnn(Cc2ccc(Cn3cc(C(=O)NCc4ccc5[nH]ccc5c4)c(C(F)(F)F)n3)cc2)c1 [Example 112]  Factor XIIa (Homo sapiens (Human))      IC50  > 10000 nM
 9  Cc1cnn(Cc2ccc(Cn3cc(C(=O)NCc4cc5cc[nH]c5nc4C)nn3)cc2)c1 [Example 116]  Factor XIIa (Homo sapiens (Human))      IC50  > 10000 nM
10  Nc1nccc2cc(CNC(=O)c3cnn(Cc4cccc(Oc5ncccc5F)c4)c3)ccc12 [Example 48]  Factor XIIa (Homo sapiens (Human))      IC50  > 40000 nM
11  Cc1cnn(Cc2ccc(Cn3cc(C(=O)NCc4ccc5c(N)nccc5c4)c(-c4ccccc4)n3)cc2)c1 [Example 35]  Factor XIIa (Homo sapiens (Human))      IC50  > 10000 nM
12  O=C(NCc1cccc2[nH]ncc12)c1cn(Cc2ccc(Cn3ccccc3=O)cc2)nc1C(F)(F)F [Example 126]  Factor XIIa (Homo sapiens (Human))      IC50  > 10000 nM
13  Nc1nccc2cc(CNC(=O)c3cnn(Cc4cc5cc(OC(F)(F)F)ccc5[nH]4)c3)ccc12 [Example 52]  Factor XIIa (Homo sapiens (Human))      IC50  > 40000 nM
14  CCn1c(C(=O)NCc2ccc3c(N)nccc3c2)cc(C)c1Cc1ccc(Cn2cc(C)cn2)cc1 [Example 28]  Factor XIIa (Homo sapiens (Human))      IC50  > 10000 nM
15  Nc1nccc2cc(CNC(=O)c3cn(Cc4ccnc(N5CCC(F)(F)C5)c4)nc3C(F)(F)F)ccc12 [Example 56]  Factor XIIa (Homo sapiens (Human))      IC50  > 10000 nM
16  O=C(NCc1cnc2[nH]ccc2c1)c1cnn(Cc2ccc(Oc3ccccn3)cc2)c1 [Example 107]  Factor XIIa (Homo sapiens (Human))      IC50  > 40000 nM
17  CCOc1ccc(Cn2cc(C(=O)NCc3ccc4c(N)nccc4c3)c(C(F)(F)F)n2)cn1 [Example 55]  Factor XIIa (Homo sapiens (Human))      IC50  > 10000 nM
18  Cc1cnn(Cc2ccc(Cn3cc(C(=O)NCc4ccc5c(N)nccc5c4)c(C4CCC4)n3)cc2)c1 [Example 14]  Factor XIIa (Homo sapiens (Human))      IC50  > 10000 nM
19  Cc1cc(C(=O)NCc2ccc3ccnc(N)c3c2)c(C)n1Cc1csc(-c2ccccc2)n1 [Example 2]  Factor XIIa (Homo sapiens (Human))      IC50  > 10000 nM
20  Nc1nccc2cc(CNC(=O)c3cn(Cc4ccc(N5CCCC5)nc4)nc3C(F)(F)F)ccc12 [Example 24]  Factor XIIa (Homo sapiens (Human))      IC50   > 1000 nM
21  Nc1nccc2cc(CNC(=O)c3cnn(Cc4ccc(COc5cccc(F)n5)cc4)c3)ccc12 [Example 50]  Factor XIIa (Homo sapiens (Human))      IC50  > 40000 nM
22  Cc1cnn(Cc2ccc(Cn3cc(C(=O)NCc4ccc5c(N)nccc5c4)nn3)cc2)c1 [Example 33]  Factor XIIa (Homo sapiens (Human))      IC50  > 10000 nM
23  Cc1cnn(Cc2ccc(Cc3nc(C)c(C(=O)NCc4ccc5c(N)nccc5c4)s3)cc2)c1 [Example 18]  Factor XIIa (Homo sapiens (Human))      IC50  > 10000 nM
24  Cc1cc(C(=O)NCc2ccc3c(N)nccc3c2)c(C)n1Cc1ccc(Cn2ccccc2=O)cc1 [Example 44]  Factor XIIa (Homo sapiens (Human))      IC50  > 10000 nM
25  Cc1cnn(Cc2ccc(Cn3cc(C(=O)NCc4ccc5c(N)nccc5c4)c(C)n3)cc2)c1 [Example 11]  Factor XIIa (Homo sapiens (Human))      IC50  > 10000 nM
26  CCn1c(C(=O)NCc2ccc3c(N)nccc3c2)cc(C)c1Cc1ccc(Cn2ccccc2=O)cc1 [Example 6]  Factor XIIa (Homo sapiens (Human))      IC50  > 10000 nM
27  Cc1cnn(Cc2ccc(Cn3cc(C(=O)NCc4ccc5c(N)nccc5c4)c(C(C)C)n3)cc2)c1 [Example 13]  Factor XIIa (Homo sapiens (Human))      IC50  > 10000 nM
28  C[C@H]1CCN(c2cc(Cn3cc(C(=O)NCc4ccc5c(N)nccc5c4)c(C(F)(F)F)n3)ccn2)C1 [Example 68]  Factor XIIa (Homo sapiens (Human))      IC50  > 10000 nM
29  C[C@@H]1CCN(c2cc(Cn3cc(C(=O)NCc4ccc5c(N)nccc5c4)c(C(F)(F)F)n3)ccn2)C1 [Example 67]  Factor XIIa (Homo sapiens (Human))      IC50  > 10000 nM
30  Nc1nccc2cc(CNC(=O)c3cnn(Cc4ccc(Oc5ccccn5)cc4)c3)ccc12 [Example 49]  Factor XIIa (Homo sapiens (Human))      IC50  > 40000 nM
